Reference source: patent US11331299B2

- Tested on: 43 cancer cell lines and one normal cell line
- experiment-summary: In vitro cell viability assay (intracellular ATP, 72 hour)
- Format: cell-based
- test-conditions: SW-620 (Colon Cancer); 10 μM
measured-metric: % Cell growth (%)
Dear colleague, please return just the value in %, with no unit written.

# compound, % Cell growth [%]
measured = [
    ("CC(C)=CCC[C@H](CO)[C@@H]1CC[C@@H](C)c2c1cc(C)c(O)c2O [Compound 1, 7,8,18-trihydroxyserrulat-14-ene]", "−89"),
    ("CC(C)=CCC[C@@H]1COc2c(C)cc(O)c3c2[C@H]1CC[C@H]3C [Compound 3, 5,18-epoxy-8-hydroxyserrulat-14-ene]", 107),
    ("CC(C)=CCC[C@H](C)[C@@H]1CC[C@@H](C)c2c1cc(C)c(O)c2O [Compound 4, 7,8-dihydroxyserrulat-14-ene]", 74),
]

Next up:
Incoming: Dear colleague, I am looking for the recorded % Cell growth of the following compound: CC(C)=CCC[C@@H]1C(O)Oc2c(C)cc(O)c3c2[C@H]1CC[C@H]3C (stereo partly shown)
Outgoing: 97

---

- tested-on: CYP2B6 (Homo sapiens, UniProt P20813)
- Sequence (P20813 1-491): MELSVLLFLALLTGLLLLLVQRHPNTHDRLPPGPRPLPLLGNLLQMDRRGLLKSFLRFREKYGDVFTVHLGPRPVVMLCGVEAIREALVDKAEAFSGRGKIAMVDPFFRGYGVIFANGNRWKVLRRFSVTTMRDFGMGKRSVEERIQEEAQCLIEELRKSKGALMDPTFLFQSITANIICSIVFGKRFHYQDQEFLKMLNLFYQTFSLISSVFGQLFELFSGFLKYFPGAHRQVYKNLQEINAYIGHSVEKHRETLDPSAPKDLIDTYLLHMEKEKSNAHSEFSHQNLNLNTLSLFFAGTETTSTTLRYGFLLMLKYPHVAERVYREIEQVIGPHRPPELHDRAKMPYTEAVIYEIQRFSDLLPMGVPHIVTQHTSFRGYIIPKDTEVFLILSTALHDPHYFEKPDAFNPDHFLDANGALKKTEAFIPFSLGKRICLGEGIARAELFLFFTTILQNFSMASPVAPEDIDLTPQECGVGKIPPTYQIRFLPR
- experiment-summary: Cytochrome P450 Inhibition (CYP panel)
- test-conditions: human, human liver microsomes, probe bupropion
Let's look at some molecules and their measured inhibition at 1 µM.

# molecule, inhibition at 1 µM
records = [
    ("CC(C)=CCC[C@@H]1C(O)Oc2c(C)cc(O)c3c2[C@H]1CC[C@H]3C (stereo partly drawn)", "13 to 16%"),
]

Incoming: Dear colleague, I am looking for the recorded inhibition at 1 µM of the following molecule: CC(C)=CCC[C@H](CO)[C@@H]1CC[C@@H](C)c2c1cc(C)c(O)c2O [Compound 1, 7,8,18-trihydroxyserrulat-14-ene]
Outgoing: 13 to 16%

Incoming: Next record, please: CC(C)=CCC[C@H](C)[C@@H]1CC[C@@H](C)c2c1cc(C)c(O)c2O [Compound 4, 7,8-dihydroxyserrulat-14-ene]
Outgoing: 13 to 16%

---

- System: 280 human cancer cell lines
- experiment-summary: OncoPanel cell proliferation assay (10-day)
- Type: cell-based
- test-conditions: Homo sapiens, G-361, G-361, Skin (Melanoma); read-out: Cell Count IC50
measured-metric: IC50 (µM)
Dear colleague, please return just the value in µM, with no unit written.

Incoming: Dear colleague, I am looking for the recorded IC50 of the following compound: CC(C)=CCC[C@H](C)[C@@H]1CC[C@@H](C)c2c1cc(C)c(O)c2O [Compound 4, 7,8-dihydroxyserrulat-14-ene]
Outgoing: 13.9

Incoming: Next record, please: CC(C)=CCC[C@@H]1C(O)Oc2c(C)cc(O)c3c2[C@H]1CC[C@H]3C (stereo partly drawn)
Outgoing: 11.8

Incoming: Next record, please: CC(C)=CCC[C@H](CO)[C@@H]1CC[C@@H](C)c2c1cc(C)c(O)c2O [Compound 1, 7,8,18-trihydroxyserrulat-14-ene]
Outgoing: 1.79
